assay: log P by HPLC on reversed-phase column (EEC Directive 79/831 Annex V.A8); type: physicochemical; settings: reversed-phase HPLC column (C18); HPLC, acidic range pH 2.3, marked a)
MEASURED METRIC: chromatographic logP
Would you mind answering with just the numeric figure?

Consider the reported chromatographic logP for these compounds:
CCCOc1ccc(-c2ccc(C3CCC(c4c(F)cccc4F)=N3)cc2)cn1 (stereo not drawn) [compound 5]; 3.42
CCOc1ccc(Br)cn1 [III-1, 5-bromo-2-ethoxypyridine]; 2.92
Fc1cccc(F)c1C1=NC(c2ccc(-c3ccc(OC4CCCC4)nc3)cc2)CC1 (stereo not drawn) [compound 21]; 3.99

Notebook: CC(C)Sc1ccc(-c2ccc(C3CCC(c4c(F)cccc4F)=N3)cc2)cn1 (stereo not drawn) [compound 8] , chromatographic logP read as 3.8

Data point: Fc1cccc(F)c1C1=NC(c2ccc(-c3ccc(OC4CCC4)nc3)cc2)CC1 (stereo not drawn) [compound 19] ; chromatographic logP = 3.66

# compound Fc1cccc(F)c1C1=NC(c2ccc(-c3ccc(OCC4CC4)nc3)cc2)CC1 (stereo not drawn) [compound 25] ; its chromatographic logP = 3.48

Measured chromatographic logP of CCOc1ccc(-c2ccc(C3CCC(c4c(F)cccc4F)=N3)cc2)cn1 (stereo not drawn) [No. 1] : 2.92

# chromatographic logP of CCSc1ccc(-c2ccc(C3CCC(c4c(F)cccc4F)=N3)cc2)cn1 (stereo not drawn) [compound 4] = 3.29

Quick note, chromatographic logP for CC(C)Oc1ccc(-c2ccc(C3CCC(c4c(F)cccc4F)=N3)cc2)cn1 (stereo not drawn) [compound 7] landed at 3.42

Measured values drawn from patent US7115603B2 for this set.
